Form field: IC50 (one value per entry).
# System tested: human C5a receptor (CD88) (Homo sapiens)
# Construct: expressed in transfected cells; host or cells: rat basophilic leukemia (RBL) cells, stably transfected
# Sequence (P21730 1-350): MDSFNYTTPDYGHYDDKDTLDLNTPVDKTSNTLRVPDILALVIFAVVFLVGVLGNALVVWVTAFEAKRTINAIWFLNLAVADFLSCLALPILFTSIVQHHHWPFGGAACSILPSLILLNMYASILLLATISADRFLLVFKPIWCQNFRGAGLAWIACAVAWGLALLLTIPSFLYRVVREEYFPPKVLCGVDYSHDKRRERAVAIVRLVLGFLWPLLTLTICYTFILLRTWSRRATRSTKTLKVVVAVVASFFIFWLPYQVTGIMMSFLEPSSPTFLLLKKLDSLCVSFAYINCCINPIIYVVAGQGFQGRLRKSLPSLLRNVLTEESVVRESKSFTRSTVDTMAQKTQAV
# Assay: C5a induced enzyme (glucosaminidase) release assay in RBL cells expressing the human C5a receptor (Example 28)
# Type: cell-based
# Condition: inhibition of C5a induced enzyme release, RBL cells with human C5aR; read-out: Activity-range (antagonistic activity, IC50 enzyme release)
Property name: IC50

1) CCc1ccc(N)c(CC)c1NC(=O)N(c1ccc(C(C)C)cc1)[C@H](C)c1ccc(C)cc1
200 to 5000 nM
2) CCc1c(N)cc(Cl)c(CC)c1NC(=O)N(Cc1ccc(OC)cc1F)c1ccc(C(C)C)cc1
200 to 5000 nM
3) CCc1c(N)cc(Cl)c(CC)c1NC(=O)N(c1ccc(Cl)cc1)[C@@H](C)c1ccc(Cl)cc1
200 to 5000 nM
4) CCc1c(N)cc(Cl)c(CC)c1NC(=O)N(Cc1ccccc1)c1ccc(NC)cc1
60 to 200 nM
5) CCc1c(N)cc(Cl)c(CC)c1NC(=O)N(c1ccc(C(C)C)cc1)C1CCSc2ccccc21 (stereo not drawn)
200 to 5000 nM
6) CCc1c(Cl)cc(NCc2nccn2C)c(CC)c1NC(=O)N(Cc1ccc(OC)cc1)c1ccc(C(C)C)cc1
200 to 5000 nM

Origin of values: patent US8071810B2
